# Species on record: Rattus norvegicus
# protocol details: Selectivity ratio of Ki for DAT in Sprague-Dawley rat brain homogenate to Ki for SERT in Sprague-Dawley rat brain homogenate
# Assay type: tissue-based
Reported Ratio Ki values follow for various molecules
measurement label: Ratio Ki

[
  {
    "substance smiles": "CN1CC(OCc2ccc(Cl)cc2)(c2ccc(Cl)c(Cl)c2)C1",
    "value": 630
  },
  {
    "substance smiles": "CN1CC(OCc2ccc(Cl)c(Cl)c2)(c2ccc(Cl)c(Cl)c2)C1",
    "value": 340
  },
  {
    "substance smiles": "CN1CC(OCc2ccccc2)(c2ccc(Cl)cc2)C1",
    "value": 36
  },
  {
    "substance smiles": "CN1CC(OCc2ccc(Cl)c(Cl)c2)(c2ccc(Cl)cc2)C1",
    "value": 330
  },
  {
    "substance smiles": "CN1CC(OCc2ccc(Cl)cc2)(c2ccc(Cl)cc2)C1",
    "value": 490
  }
]

====

pKi: −log10 of the molar value.
The compounds below have reported pKi for Sodium-dependent serotonin transporter (Rattus norvegicus).

[
  {
    "substance smiles": "Clc1ccc(COC2(c3ccc(Cl)c(Cl)c3)CNC2)cc1Cl",
    "system tested": "Sodium-dependent serotonin transporter (Rattus norvegicus)",
    "pKi": 8.38
  },
  {
    "substance smiles": "Clc1ccc(COC2(c3ccc(Cl)c(Cl)c3)CNC2)cc1",
    "system tested": "Sodium-dependent serotonin transporter (Rattus norvegicus)",
    "pKi": 8.54
  },
  {
    "substance smiles": "CN1CC(OCc2ccc(Cl)c(Cl)c2)(c2ccc(Cl)c(Cl)c2)C1",
    "system tested": "Sodium-dependent serotonin transporter (Rattus norvegicus)",
    "pKi": 8.89
  },
  {
    "substance smiles": "CN1CC(OCc2ccc(Cl)cc2)(c2ccc(Cl)cc2)C1",
    "system tested": "Sodium-dependent serotonin transporter (Rattus norvegicus)",
    "pKi": 8.11
  },
  {
    "substance smiles": "CN1CC(OCc2ccc(Cl)cc2)(c2ccccc2)C1",
    "system tested": "Sodium-dependent serotonin transporter (Rattus norvegicus)",
    "pKi": 8.40
  },
  {
    "substance smiles": "CN1CC(OCc2ccccc2)(c2ccc(Cl)cc2)C1",
    "system tested": "Sodium-dependent serotonin transporter (Rattus norvegicus)",
    "pKi": 7.41
  }
]

====

pKi: −log10 of the molar value.
Record set of pKi for target or system Sodium-dependent dopamine transporter (Rattus norvegicus, UniProt P23977).
measurement label: pKi

[
  {
    "substance smiles": "CN1CC(OCc2ccc(Cl)c(Cl)c2)(c2ccc(Cl)c(Cl)c2)C1",
    "system tested": "Sodium-dependent dopamine transporter (Rattus norvegicus, UniProt P23977)",
    "value": 6.36
  },
  {
    "substance smiles": "Clc1ccc(COC2(c3ccccc3)CNC2)cc1",
    "system tested": "Sodium-dependent dopamine transporter (Rattus norvegicus, UniProt P23977)",
    "value": 5.44
  },
  {
    "substance smiles": "CN1CC(OCc2ccccc2)(c2ccc(Cl)cc2)C1",
    "system tested": "Sodium-dependent dopamine transporter (Rattus norvegicus, UniProt P23977)",
    "value": 5.85
  },
  {
    "substance smiles": "Clc1ccc(COC2(c3ccc(Cl)c(Cl)c3)CNC2)cc1Cl",
    "system tested": "Sodium-dependent dopamine transporter (Rattus norvegicus, UniProt P23977)",
    "value": 5.44
  },
  {
    "substance smiles": "c1ccc(COC2(c3ccccc3)CNC2)cc1",
    "system tested": "Sodium-dependent dopamine transporter (Rattus norvegicus, UniProt P23977)",
    "value": 5.31
  },
  {
    "substance smiles": "Clc1ccc(COC2(c3ccc(Cl)c(Cl)c3)CNC2)cc1",
    "system tested": "Sodium-dependent dopamine transporter (Rattus norvegicus, UniProt P23977)",
    "value": 5.52
  },
  {
    "substance smiles": "Clc1ccc(C2(OCc3ccccc3)CNC2)cc1",
    "system tested": "Sodium-dependent dopamine transporter (Rattus norvegicus, UniProt P23977)",
    "value": 5.50
  },
  {
    "substance smiles": "CN1CC(OCc2ccc(Cl)c(Cl)c2)(c2ccc(Cl)cc2)C1",
    "system tested": "Sodium-dependent dopamine transporter (Rattus norvegicus, UniProt P23977)",
    "value": 6.01
  },
  {
    "substance smiles": "CN1CC(OCc2ccc(Cl)cc2)(c2ccc(Cl)c(Cl)c2)C1",
    "system tested": "Sodium-dependent dopamine transporter (Rattus norvegicus, UniProt P23977)",
    "value": 5.64
  },
  {
    "substance smiles": "Clc1ccc(C2(OCc3ccc(Cl)c(Cl)c3)CNC2)cc1",
    "system tested": "Sodium-dependent dopamine transporter (Rattus norvegicus, UniProt P23977)",
    "value": 5.42
  },
  {
    "substance smiles": "Clc1ccc(C2(OCc3ccccc3)CNC2)cc1Cl",
    "system tested": "Sodium-dependent dopamine transporter (Rattus norvegicus, UniProt P23977)",
    "value": 5.89
  }
]
